test system: Bacillus subtilis, ATCC 23857; test: Minimal inhibitory concentration assay (microbroth dilution); type: cell-based; conditions: Bacillus subtilis, ATCC23857, read-out: Minimal Inhibitory Concentrations B. subtilis ATCC 23857
*1 amine or outer side, *2 acyl side, *3 side chain or, on linkers, in order; H or OH if unused. Where a SMILES comes first, the peptide text is derived from it. Bridges are numbered along the chain shown (N, C = ends). [ ]: non-standard residue; d: D form. The star is where a group is joined. ξ: configuration not given here. Phe(3,5-F2) = N[C@@H](Cc1cc(F)cc(F)c1)C(=O)O; Pro(4S-Me) = C[C@@H]1CN[C@H](C(=O)O)C1; X10 = O=C(C1C[C@H](F)CN1[*:1])[*:2]; NHPh(4-CF3) = FC(F)(F)c1ccc(N*)cc1; NH(4-Me-phenyl) = Cc1ccc(N*)cc1; aThr = C[C@H](O)[C@H](N)C(=O)O; Pip = O=C(O)[C@@H]1CCCCN1; ξPip = O=C(O)C1CCCCN1; CO = O=C([*:1])[*:2]; ξP = O=C(O)C1CCCN1
PROPERTY: MIC

# annotated cases, reported MIC shown
C[C@H]1C[C@H]2C(=O)O[C@@H](C)[C@H](NC(=O)[C@H](Cc3cc(F)cc(F)c3)NC(=O)Nc3ccc(C(F)(F)F)cc3)C(=O)N3CCC[C@H]3C(=O)N3CCCC[C@H]3C(=O)N[C@@H](C)C(=O)N2C1 [Compound 19] ({NHPh(4-CF3)-CO}-[Phe(3,5-F2)][aThr]P[Pip]A[Pro(4S-Me)]; ester 2-C)    < 0.1 µM
Cc1ccc(NC(=O)N[C@@H](Cc2ccccc2)C(=O)N[C@H]2COC(=O)[C@@H]3C[C@@H](C)CN3C(=O)[C@H](C)NC(=O)[C@@H]3CCCCN3C(=O)[C@@H]3CCCN3C2=O)cc1    < 0.2 µM
Cc1ccc(NC(=O)N[C@@H](Cc2cc(F)cc(F)c2)C(=O)N[C@H]2COC(=O)C3C[C@H](F)CN3C(=O)[C@H](C)NC(=O)C3CCCCN3C(=O)C3CCCN3C2=O)cc1 (stereo partly drawn) [Compound 50] ({NH(4-Me-phenyl)-CO}-[Phe(3,5-F2)]S[ξP][ξPip]A[X10]; ester 2-C)    > 200 µM
Cc1ccc(NC(=O)N[C@@H](Cc2cc(F)cc(F)c2)C(=O)N[C@@H]2C(=O)N3CCC[C@H]3C(=O)N3CCCC[C@H]3C(=O)N[C@@H](C)C(=O)N3CCC[C@H]3C(=O)O[C@H]2C)cc1 [Compound 15] ({NH(4-Me-phenyl)-CO}-[Phe(3,5-F2)][aThr]P[Pip]AP; ester 2-C)    < 0.1 µM
Cc1ccc(NC(=O)N[C@@H](Cc2ccccc2)C(=O)N[C@H]2COC(=O)[C@@H]3C[C@@H](C)CN3C(=O)[C@H](C)NC(=O)[C@@H]3CCCCN3C(=O)[C@@H]3CCCN3C2=O)cc1C    < 0.2 µM

Now consider a different compound.
Which MIC value is on record for Cc1ccc(NC(=O)N[C@@H](Cc2cc(F)cc(F)c2)C(=O)N[C@@H]2C(=O)N3CCC[C@H]3C(=O)N3CCCC[C@H]3C(=O)N[C@@H](C)C(=O)N3C[C@@H](C)C[C@H]3C(=O)O[C@H]2C)cc1 [Compound 18] ({NH(4-Me-phenyl)-CO}-[Phe(3,5-F2)][aThr]P[Pip]A[Pro(4S-Me)]; ester 2-C) ?
< 0.1 µM
